- Tested target: PI3K (Homo sapiens, UniProt P42336)
- Sequence (P42336 whole entry): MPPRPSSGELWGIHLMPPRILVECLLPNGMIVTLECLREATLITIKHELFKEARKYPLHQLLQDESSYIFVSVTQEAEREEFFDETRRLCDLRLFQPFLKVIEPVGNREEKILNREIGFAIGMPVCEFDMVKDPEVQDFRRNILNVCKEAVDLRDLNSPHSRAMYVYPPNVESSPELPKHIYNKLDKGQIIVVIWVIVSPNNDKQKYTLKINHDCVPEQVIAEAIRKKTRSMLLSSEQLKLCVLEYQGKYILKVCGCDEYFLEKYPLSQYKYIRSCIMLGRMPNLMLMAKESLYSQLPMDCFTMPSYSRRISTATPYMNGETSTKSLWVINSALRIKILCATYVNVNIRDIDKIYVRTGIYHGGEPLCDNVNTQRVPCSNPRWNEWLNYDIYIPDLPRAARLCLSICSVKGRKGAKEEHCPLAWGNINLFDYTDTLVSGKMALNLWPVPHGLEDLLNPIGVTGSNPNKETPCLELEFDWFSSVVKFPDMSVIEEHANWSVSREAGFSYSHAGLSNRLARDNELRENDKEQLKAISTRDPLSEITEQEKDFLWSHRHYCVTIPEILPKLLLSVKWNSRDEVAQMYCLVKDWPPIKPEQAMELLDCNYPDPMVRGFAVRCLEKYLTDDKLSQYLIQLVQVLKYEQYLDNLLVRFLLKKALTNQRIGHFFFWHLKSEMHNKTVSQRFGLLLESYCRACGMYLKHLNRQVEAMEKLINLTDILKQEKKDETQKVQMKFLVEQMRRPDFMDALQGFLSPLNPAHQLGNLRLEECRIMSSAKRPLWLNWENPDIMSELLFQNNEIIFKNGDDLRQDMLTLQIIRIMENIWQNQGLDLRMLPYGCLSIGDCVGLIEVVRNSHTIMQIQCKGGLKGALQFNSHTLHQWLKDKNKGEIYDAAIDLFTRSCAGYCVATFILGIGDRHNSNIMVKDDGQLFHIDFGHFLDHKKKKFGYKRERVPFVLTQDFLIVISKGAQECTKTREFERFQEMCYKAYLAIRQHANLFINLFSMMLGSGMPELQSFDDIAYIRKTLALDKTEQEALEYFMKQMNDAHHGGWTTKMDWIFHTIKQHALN
- Sequence (P27986 whole entry partner): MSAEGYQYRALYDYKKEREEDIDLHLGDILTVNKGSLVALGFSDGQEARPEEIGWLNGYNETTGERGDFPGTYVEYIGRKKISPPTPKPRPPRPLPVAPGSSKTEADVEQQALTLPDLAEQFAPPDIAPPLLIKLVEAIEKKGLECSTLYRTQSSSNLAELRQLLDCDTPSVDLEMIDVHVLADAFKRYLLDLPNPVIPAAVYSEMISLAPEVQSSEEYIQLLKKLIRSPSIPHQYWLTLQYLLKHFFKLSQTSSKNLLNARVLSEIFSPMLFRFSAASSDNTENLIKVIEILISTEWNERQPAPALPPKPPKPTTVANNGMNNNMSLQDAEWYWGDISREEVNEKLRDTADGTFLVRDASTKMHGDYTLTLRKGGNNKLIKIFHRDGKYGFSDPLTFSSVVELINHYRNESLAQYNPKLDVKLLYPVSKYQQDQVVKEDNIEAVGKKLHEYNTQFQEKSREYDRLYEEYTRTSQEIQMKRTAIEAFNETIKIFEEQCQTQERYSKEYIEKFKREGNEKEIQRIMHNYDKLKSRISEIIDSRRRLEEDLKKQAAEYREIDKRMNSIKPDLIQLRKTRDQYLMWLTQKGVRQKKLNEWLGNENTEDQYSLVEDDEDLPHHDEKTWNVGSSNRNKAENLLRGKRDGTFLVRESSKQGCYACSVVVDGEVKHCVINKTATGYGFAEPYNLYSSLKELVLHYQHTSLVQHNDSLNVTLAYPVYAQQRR
- Method: Fluorescence polarization assay for PI3K
- Type: biochemical
- Test parameters: PI3Kα; read-out: PI3Kα IC50
Outcome measure: IC50 (nM)

Compound: COC(=O)Nc1ccc(-c2nc(N3CCOCC3)c3cnn(C4CCN(C(=O)c5ccccc5F)CC4)c3n2)cc1 [Example 443]
Unit of measure: nM
Test result: 1140

Compound: Nc1ccnc(-c2nc(N3CCOCC3)c3cnn(C4CCN(C(=O)c5cccnc5)CC4)c3n2)c1 [Compound 678]
Unit of measure: nM
Test result: 6660

Compound: Nc1ccc(-c2nc(N3CCOCC3)c3cnn(C4CCC5(CC4)OCCO5)c3n2)cc1 [Compound 320]
Unit of measure: nM
Test result: 2050

Compound: CNC(=O)Nc1ccc(-c2nc(N3CCOCC3)c3cnn(C4CCN(C)CC4)c3n2)cc1 [Compound 646]
Unit of measure: nM
Test result: 211

Compound: NC(=O)Nc1ccc(-c2nc(N3CCOCC3)c3cnn(C4CCN(Cc5cccnc5)CC4)c3n2)cc1 [Example 313]
Unit of measure: nM
Test result: 82

Compound: Nc1ccc(-c2nc(N3CCOCC3)c3cnn(C4CCN(CCCCO)CC4)c3n2)cc1
Unit of measure: nM
Test result: 4230

1: CC(=O)NCc1cccc(-c2nc(N3CCOCC3)c3cnn(-c4ccccc4)c3n2)c1
2: CNC(=O)Nc1ccc(-c2nc(N3CCOCC3)c3cnn(C4CCN(C(=O)N(C)C)CC4)c3n2)cc1 [Example 473]
3: CC(C)OC(=O)Nc1ccc(-c2nc(N3CCOCC3)c3cnn(C4CCN(Cc5ccccc5)CC4)c3n2)cc1
4: CNC(=S)Nc1ccc(-c2nc(N3CCOCC3)c3cnn(C4CCN(Cc5ccccc5)CC4)c3n2)cc1
5: C[C@@H]1COCCN1c1nc(-c2cccc(O)c2)nc2c1cnn2-c1ccccc1
Which order do these items take when sorted by rising IC50? List them. Returns: the labels arranged in the requested order.
4, 2, 1, 5, 3

* * *

- Tested target: PI3K (Homo sapiens, UniProt P42336)
- Method: Fluorescence polarization assay for PI3K;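 note: PI3K kinase reaction on PIP2 with ATP, 30-60 min, product sensed by GST-GRP with red probe in fluorescence polarization (mP), controls without enzyme and at zero time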
- Type: biochemical
- Test parameters: PI3Kα; read-out: PI3Kα IC50
pIC50: −log10 of the molar value.
Outcome measure: pIC50

Example molecules with recorded pIC50:
Molecule: CNC(=O)Nc1ccc(-c2nc(N3CCOCC3)c3cnn(C4CCC5(CC4)OCCO5)c3n2)cc1 [Compound 566]
Tested target: PI3K (Homo sapiens, UniProt P42336)
Test result: 7.13
//
Molecule: CNC(=O)Nc1ccc(-c2nc(N3CCOCC3)c3cnn(C4CCN(C(=O)c5ccc(F)nc5)CC4)c3n2)cc1 [Example 421]
Tested target: PI3K (Homo sapiens, UniProt P42336)
Test result: 7.00
//
Molecule: CNC(=O)Nc1ccc(-c2nc(N3CCOCC3)c3cnn(C4CCN(CC(N)=O)CC4)c3n2)cc1 [Compound 576]
Tested target: PI3K (Homo sapiens, UniProt P42336)
Test result: 7.18
//
Molecule: c1ccc(N2CCC(n3ncc4c(N5CCOCC5)nc(-c5ccc6[nH]ccc6c5)nc43)CC2)nc1
Tested target: PI3K (Homo sapiens, UniProt P42336)
Test result: 5.85
//
Molecule: O=C(Nc1ccccc1)Nc1ccc(-c2nc(N3CCOCC3)c3cnn(C4CCN(C(=O)c5cccnc5)CC4)c3n2)cc1
Tested target: PI3K (Homo sapiens, UniProt P42336)
Test result: 7.85

A: O=C(Nc1ccccc1)Nc1ccc(-c2nc(N3CCOCC3)c3cnn(C4CCN(CC(F)(F)F)CC4)c3n2)cc1
B: O=C(Nc1ccncc1)Nc1ccc(-c2nc(N3CCOCC3)c3cnn(C4CCN(CC(F)(F)F)CC4)c3n2)cc1
When the recorded pIC50 values are compared, which is smaller: that of A or that of B ? Write down the label of the entry you select.
B

* * *

- System: breast line MDA468
- Method: In vitro cell culture growth assay (MTS), MDA468
- Type: cell-based, human
- Test parameters: Homo sapiens, 72 h, MDA468 cells, three days after drug treatment
Outcome measure: pIC50
Interpret pIC50 as the negative base-10 log of the concentration measured in mol/L.

Example compounds with recorded pIC50:
Compound: COC(=O)N1CCC(n2ncc3c(N4CCOCC4)nc(-c4ccc(NC(=O)Nc5ccccc5F)cc4)nc32)CC1
Tested target: breast line MDA468
pIC50: 6.41

Compound: CNC(=O)Nc1ccc(-c2nc(N3CCOCC3)c3cnn(C4CCN(C(=O)Oc5ccccc5)CC4)c3n2)cc1
Tested target: breast line MDA468
pIC50: 6.80

Compound: O=C(NCCF)Nc1ccc(-c2nc(N3CCOCC3)c3cnn(C4CCNCC4)c3n2)cc1
Tested target: breast line MDA468
pIC50: 5.98

Compound: CNC(=O)Nc1ccc(-c2nc(N3CCOCC3)c3cnn(C4CCN(Cc5ccccn5)CC4)c3n2)cc1 [Example 331]
Tested target: breast line MDA468
pIC50: 6.30

Compound: CNCCNC(=O)Nc1ccc(-c2nc(N3CCOCC3)c3cnn(C4CCN(Cc5ccccc5)CC4)c3n2)cc1 [Compound 545]
Tested target: breast line MDA468
pIC50: 6.82

Identify the reported pIC50 for the following entry. `CNC(=O)Nc1ccc(-c2nc(N3CCOCC3)c3cnn(C4CCN(C(=O)c5ccc(F)nc5)CC4)c3n2)cc1`
6.52

Identify the reported pIC50 for the following entry. O=C(Nc1ccccc1)Nc1ccc(-c2nc(N3CCOCC3)c3cnn(C4CCN(Cc5cccnc5)CC4)c3n2)cc1 [Compound 586]
6.66

Identify the reported pIC50 for the following entry. CNC(=O)Nc1ccc(-c2nc(N3CCOCC3)c3cnn(C4CCN(C(=O)Nc5cccnc5)CC4)c3n2)cc1 [Compound 579]
5.60

Identify the reported pIC50 for the following entry. `CCCOC(=O)N1CCC(n2ncc3c(N4CCOCC4)nc(-c4ccc(NC(=O)Nc5cccnc5)cc4)nc32)CC1`
6.92

Identify the reported pIC50 for the following entry. `NS(=O)(=O)c1ccc(-c2nc(N3CCOCC3)c3cnn(C4CCN(Cc5ccccc5)CC4)c3n2)cc1`
5.05

Identify the reported pIC50 for the following entry. `CC(C)OC(=O)N1CCC(n2ncc3c(N4CCOCC4)nc(-c4ccc(NC(=O)Nc5ccccc5)cc4)nc32)CC1`
6.77

Identify the reported pIC50 for the following entry. `COC(=O)N1CCC(n2ncc3c(N4CCOCC4)nc(-c4ccc(O)cc4)nc32)CC1`
5.68

Identify the reported pIC50 for the following entry. `O=C(c1ccc(Cl)nc1)N1CCC(n2ncc3c(N4CCOCC4)nc(-c4ccc5[nH]ccc5c4)nc32)CC1`
5.52

Identify the reported pIC50 for the following entry. `O=C(NCCF)Nc1cc(F)c(-c2nc(N3CCOCC3)c3cnn(C4CCN(C(=O)c5cccnc5)CC4)c3n2)cc1F`
5.66

Identify the reported pIC50 for the following entry. `COC(=O)N1CCC(n2ncc3c(N4CCOCC4)nc(-c4ccc(NC(=O)OCCN5CCCC5)cc4)nc32)CC1`
5.35

Identify the reported pIC50 for the following entry. NNC(=O)Nc1ccc(-c2nc(N3CCOCC3)c3cnn(C4CCN(Cc5ccccc5)CC4)c3n2)cc1 [Compound 554]
5.12

Identify the reported pIC50 for the following entry. `NCCC(=O)Nc1ccc(-c2nc(N3CCOCC3)c3cn[nH]c3n2)cc1`
4.89

Identify the reported pIC50 for the following entry. `CN(C)S(=O)(=O)c1ccc(-c2nc(N3CCOCC3)c3cnn(C4CCN(Cc5ccccc5)CC4)c3n2)cc1`
4.22

Identify the reported pIC50 for the following entry. OCCCN1CCC(n2ncc3c(N4CCOCC4)nc(-c4ccc5[nH]ccc5c4)nc32)CC1 [Compound 247]
5.52

Identify the reported pIC50 for the following entry. `O=C(Nc1ccccc1)Nc1ccc(-c2nc(N3CCOCC3)c3cnn(C4CCN(CC(F)(F)F)CC4)c3n2)cc1`
6.05

Identify the reported pIC50 for the following entry. `CC(C)(C)OC(=O)N1CCC(n2ncc3c(N4CCOCC4)nc(-c4ccc(NC(=O)Nc5ccccn5)cc4)nc32)CC1`
5.15

Identify the reported pIC50 for the following entry. `CCNC(=O)Nc1ccc(-c2nc(N3CCOCC3)c3cnn(C4CCNCC4)c3n2)cc1`
6.41

* * *

- Tested target: PI3K (Homo sapiens)
- Method: Fluorescence polarization assay for PI3K
- Assay type: biochemical
- Test parameters: PI3Kα; read-out: PI3Kα IC50
pIC50: −log10 of the molar value.
Outcome measure: pIC50

Example molecules with recorded pIC50:
Molecule: CC(=O)Nc1ccc(-c2nc(N3CCOCC3)c3cnn(CCN4CCCCC4)c3n2)cc1
Outcome measure: pIC50
Test result: 5.19
//
Molecule: CC(=O)Nc1ccc(-c2nc(N3CCOCC3)c3cn[nH]c3n2)cc1 [Compound 926]
Outcome measure: pIC50
Test result: 6.35
//
Molecule: COC(=O)Nc1ccc(-c2nc(N3CCOCC3)c3cnn(C4CCN(Cc5ccc(Cl)nc5)CC4)c3n2)cc1 [Compound 698]
Outcome measure: pIC50
Test result: 6.21
//
Molecule: Clc1ccc(-c2nc(N3CCOCC3)c3cnn(C4CCN(Cc5ccccc5)CC4)c3n2)cn1
Outcome measure: pIC50
Test result: 6.35
//
Molecule: COC(=O)N1CCC(n2ncc3c(N4CCOCC4)nc(-c4ccc(NC(=O)OCCN(C)C)cc4)nc32)CC1
Outcome measure: pIC50
Test result: 6.19

a: COC(=O)Nc1ccc(-c2nc(N3CCOCC3)c3cnn(C4CCN(Cc5cccnc5OC)CC4)c3n2)cc1 [Compound 696]
b: CNC(=O)Nc1ccc(-c2nc(N3CCOCC3)c3cnn(-c4ccccc4)c3n2)cc1 [Compound 543]
When the recorded pIC50 values are compared, which is smaller: that of a or that of b ? Write down the label of the entry you select.
a
(a: 5.74, b: 7.30)
